Data origin, for the record: patent US10952434B2

Quick list: probed (mean of triplicates) per entry.
# Test system: female Aedes aegypti
# Measurement Description: Flight tunnel mosquito bioassay
# Assay type: in vivo
# Conditions: 1.00% concentration, paired with control
Respond using a number only.

Please review the entries below; each comes with its answer.
Supply probed (mean of triplicates) value. Item: CC1COC2(CCCC2)O1 (centres unmarked)
12

Supply probed (mean of triplicates) value. Item: O=C1CCCC1 [cyclopentanone, reference compound]
5.7

Supply probed (mean of triplicates) value. Item: `COC1(OC)CCCCC1`
5.7

Supply probed (mean of triplicates) value. Item: CC1COC2(CCCCC2)O1 (centres unmarked)
8.3

Supply probed (mean of triplicates) value. Item: `COC1(OC)CCCC1`
1.3

---
Supply probed (mean of triplicates) value. Item: O=C1CCCCC1 [cyclohexanone, reference compound]
0.7

Supply probed (mean of triplicates) value. Item: `C1CCC2(C1)OCCO2`
8.3

Supply probed (mean of triplicates) value. Item: CC1COC(C)(c2ccc3c(c2)C(C)(C)CCC3(C)C)O1 (centres unmarked)
9.7

----------
# Test system: female Aedes aegypti
# Measurement Description: Flight tunnel mosquito bioassay
# Assay type: in vivo
# Conditions: 0.10% concentration, paired with control
Readout Kind: probed (mean of triplicates)
Respond using a number only.

Please review the entries below; each comes with its answer.
Supply probed (mean of triplicates) value. Item: O=C1CCCC1 [cyclopentanone, reference compound]
7

Supply probed (mean of triplicates) value. Item: CC1COC2(CCCCC2)O1 (stereo not shown)
6.3

Supply probed (mean of triplicates) value. Item: CC1COC(C)(c2ccc3c(c2)C(C)(C)CCC3(C)C)O1 (stereo not shown)
18.3

Could you now look at the following compound, please?
Supply probed (mean of triplicates) value. Item: `C1CCC2(C1)OCCO2`
5.7
